assay: chemical genetic growth profiling, strain panel (AID 1159580);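 also: tested at 20 µM; growth read once vehicle control cultures reached saturation at 30 °C; 1 = growth at the plate median or of vehicle wells; lower values mean less growth of the strain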; conditions: S. cerevisiae deletion strains, growth OD, locus YMR205C, strain PFK2, hits give low values
Among all 5,500 compounds or so, about 2,000 (36%) were called active. Another 18% or so got no clear call; they are omitted. The list shows a part of the results.

>  <compound>
OC(CCN1CCCC1)(c1ccccc1)C1CCCCC1 (centres undefined)

>  <normalized growth>
0.985

$$$$
>  <compound>
CC1(C)CC[C@]2(C(=O)O)CC[C@]3(C)C(=CCC4[C@@]5(C)CC[C@H](O)[C@@](C)(CO)C5CC[C@]43C)C2C1 (some centres undefined)

>  <normalized growth>
1.03

$$$$
>  <compound>
CC(=O)O[C@@H]1CC[C@@]2(C)C(CC[C@]3(C)C2CC=C2C4CC(C)(C)CC[C@]4(C(=O)O)CC[C@]23C)C1(C)C (some centres undefined)

>  <normalized growth>
0.991

$$$$
>  <compound>
CC(CC(=O)C(O)C(C)(C)O)C1C(=O)CC2(C)C3=CCC4C(C)(C)C(OC5OCC(O)C(O)C5O)CCC45CC35C(O)CC12C (centres undefined)

>  <normalized growth>
1.02

$$$$

###

experiment: chemical genetic growth profiling, strain panel (AID 1159580);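 also: tested at 20 µM; growth read once vehicle control cultures reached saturation at 30 °C; 1 = growth at the plate median or of vehicle wells; lower values mean less growth of the strain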; details: S. cerevisiae deletion strains, growth OD, locus YLR039C, strain RIC1
About 2,000 (36%) of roughly 5,500 compounds were called active. Not shown: some 18% with an inconclusive outcome. Cut-off read from the data, not from the text of the source: active = normalized growth mostly below about 0.91 (no sharp cut-off); inconclusive = no clear call, values can overlap the other calls; inactive = mostly above about 0.92. Some of the results follow.
Labels: active, inactive

>  <compound>
COC(=O)/C(C)=C\CC12OC(C)(C)C3CC(C=C4C(=O)c5c(O)c6c(c(CCC(C)(C)Cl)c5OC431)OC1(C)CCC(=C(C)C)C6C1)C2=O (stereo not drawn)

>  <answer label>
inactive

$$$$
>  <compound>
O=[N+]([O-])c1ccccc1SCc1n[nH]c(=S)n1-c1cccc(C(F)(F)F)c1

>  <answer label>
inactive

$$$$
>  <compound>
COc1ccccc1C1OC(=O)CC1C(=O)O (stereo not drawn)

>  <answer label>
inactive

$$$$
>  <compound>
CC(C)=CCCC1(C)C=Cc2c(O)c3c(c(CC=C(C)C)c2O1)OC12C(=CC4CC1C(C)(C)OC2(C/C=C(\C)C(N)=O)C4=O)C3=O (stereo not drawn)

>  <answer label>
inactive

$$$$
>  <compound>
COC(=O)C[C@H]1C(C)(C)C2(O)OC34CC2C(=O)[C@]1(C)C3CC[C@]1(C)C4=CC(=O)O[C@H]1c1ccoc1 (stereo partly drawn)

>  <answer label>
inactive

$$$$
>  <compound>
Fc1ccc(C(c2ccccc2)(c2ccccc2F)n2ccnc2)cc1 (stereo not drawn)

>  <answer label>
active

$$$$
>  <compound>
Clc1ccccc1C(c1ccccc1)(c1ccccc1)n1ccnc1

>  <answer label>
active

$$$$
>  <compound>
CC(C)=CCCC1(C)C=Cc2c(O)c3c(c(CC=C(C)C)c2O1)OC12C(=CC4CC1C(C)(C)OC2(C/C=C(/C)C(=O)O)C4=O)C3=O (stereo not drawn)

>  <answer label>
inactive

$$$$

###

assay: chemical genetic growth profiling, strain panel (AID 1159580);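 also: tested at 20 µM; growth read once vehicle control cultures reached saturation at 30 °C; 1 = growth at the plate median or of vehicle wells; lower values mean less growth of the strain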; conditions: S. cerevisiae deletion strains, growth OD, locus YGL248W, strain PDE1, hits give low values
Screen size: about 5,500 compounds; about 2,000 (36%) were called active. Not shown: some 18% with an inconclusive outcome. Some of the results follow.
parameter: normalized growth

>  <compound>
Nc1c2ccccc2nc2ccccc12

>  <assay value>
0.671

$$$$
>  <compound>
NNc1nncc2ccccc12

>  <assay value>
0.99

$$$$
>  <compound>
Nc1c2c(nc3ccccc13)CCCC2

>  <assay value>
1.02

$$$$
>  <compound>
CC(=O)O[C@H]1CC[C@@]2(C)C(CC[C@]3(C)C2C(=O)C=C2C4[C@@H](C)[C@H](C)CC[C@]4(C(=O)O)CC[C@]23C)C1(C)C (stereo partly drawn)

>  <assay value>
1.01

$$$$
>  <compound>
C[C@H]1[C@H](C)CC[C@]2(CO)CC[C@]3(C)C(=CCC4[C@@]5(C)CC[C@H](O)C(C)(C)C5CC[C@]43C)[C@H]12 (stereo partly drawn)

>  <assay value>
1.01

$$$$
>  <compound>
CC(=O)/C=C\[C@@H]1[C@@]2(C)CCCC(C)(C)C2CC[C@@]1(C)O (stereo partly drawn)

>  <assay value>
0.969

$$$$
>  <compound>
COc1ccc2c3c([nH]c2c1)C(C)=NCC3

>  <assay value>
1

$$$$
>  <compound>
C[C@@H]1CC[C@H]2[C@@H](C)C(O)O[C@@H]3O[C@@]4(C)CC[C@@H]1[C@]32OO4 (stereo partly drawn)

>  <assay value>
0.282

$$$$
>  <compound>
NNC(=O)c1ccncc1

>  <assay value>
1.01

$$$$
>  <compound>
OC(CCN1CCCCC1)(c1ccccc1)C1CCCCC1 (stereo not drawn)

>  <assay value>
1.01

$$$$
>  <compound>
CC(C)CC(N(C)C)C1(c2ccc(Cl)cc2)CCC1 (stereo not drawn)

>  <assay value>
0.999

$$$$
>  <compound>
CC(C)=CCCC1(C)C=Cc2c(O)c3c(c(CC=C(C)C)c2O1)OC12C(=CCCC1C(C)(C)O[C@@]2(C/C=C(\C)C(=O)O)C(=O)O)C3=O (stereo partly drawn)

>  <assay value>
0.792

$$$$
>  <compound>
O=C1c2c(O)cccc2Cc2cccc(O)c21

>  <assay value>
1.02

$$$$
>  <compound>
Cc1cc(O)c2c(c1)Cc1cccc(O)c1C2=O

>  <assay value>
0.958

$$$$
>  <compound>
C[C@@H]1OC(O[C@H]2[C@H](OC(=O)[C@]34CCC(C)(C)CC3C3=CCC5[C@@]6(C)CC[C@H](OC7O[C@@H](C)[C@H](O[C@@H]8OC[C@@H](O)[C@H](O)[C@H]8O)[C@@H](O)[C@H]7O)C(C)(C)C6CC[C@@]5(C)[C@]3(C)CC4O)OC[C@H](O)[C@H]2O)[C@H](O)[C@H](O)[C@H]1O[C@@H]1O[C@H](CO)[C@@H](O)[C@H](O)[C@H]1O (stereo partly drawn)

>  <assay value>
0.993

$$$$
>  <compound>
CC(C)=CCCC1(C)C=Cc2c(O)c3c(c(CC=C(C)C)c2O1)OC12C(=CC4CC1C(C)(C)OC2(C/C=C(\C)C(N)=O)C4=O)C3=O (stereo not drawn)

>  <assay value>
0.894

$$$$
>  <compound>
COc1ccc2[nH]cc(CCN)c2c1

>  <assay value>
0.981

$$$$
>  <compound>
CNC(=O)O/N=C\C(C)(C)SC

>  <assay value>
1.01

$$$$
>  <compound>
CC(C)=CCCC1(C)C=Cc2c(O)c3c(c(CC=C(C)C)c2O1)OC12C(=CC4CC1C(C)(C)OC2(C/C=C(/C)C(=O)O)C4O)C3=O (stereo not drawn)

>  <assay value>
0.946

$$$$
>  <compound>
C[C@@H]1CC[C@]2(C(=O)O)CC[C@]3(C)C(=CCC4[C@@]5(C)CC[C@H](O)C(C)(C)C5CC[C@]43C)C2[C@H]1C (stereo partly drawn)

>  <assay value>
1.03

$$$$
>  <compound>
CCC(C)C(=O)O[C@H]1[C@H](O)C2C(CN3CC(C)CCC3[C@@]2(C)O)C2C[C@]34O[C@]5(O)C(OC(=O)C(C)(O)CC)CC[C@@]3(C)C5C(OC(C)=O)[C@@H](OC(C)=O)C4[C@@]21O (stereo partly drawn)

>  <assay value>
1.01

$$$$
>  <compound>
COC(=O)C[C@H]1C(C)(C)C(=O)[C@@H]2CC3C4=CC(=O)O[C@@H](c5ccoc5)[C@]4(C)CCC3[C@@]1(C)C2=O (stereo partly drawn)

>  <assay value>
0.971

$$$$
>  <compound>
NC12CC3CC(CC(C3)C1)C2

>  <assay value>
1.03

$$$$
>  <compound>
CC(=O)OC1CC(OC(C)=O)C2(C)C(CC(OC(C)=O)C3(C)C4=CC(=O)OC(=O)C4(C)CCC32)C1(C)C (stereo not drawn)

>  <assay value>
1.03

$$$$
>  <compound>
N[C@H](C(=O)O)[C@@H]1CC(Cl)=NO1

>  <assay value>
0.331

$$$$
>  <compound>
C[C@@H]1CC[C@H]2[C@@H](C)C(=O)O[C@@H]3O[C@@]4(C)CC[C@@H]1[C@]32OO4

>  <assay value>
0.818

$$$$
>  <compound>
CC1=CCC2C3(C)C1=CC(=O)OC3CC1C(C)(C)CC(O)C(O)C12C (stereo not drawn)

>  <assay value>
1.01

$$$$
>  <compound>
C#C[C@]1(O)CCC2C3CCC4=C(CCC(=O)C4)C3CC[C@@]21C (stereo partly drawn)

>  <assay value>
1

$$$$
>  <compound>
CC1(C)CC[C@]2(C(=O)O)CC[C@]3(C)C(=CCC4[C@@]5(C)CC[C@H](O)[C@@](C)(CO)C5CC[C@]43C)C2C1 (stereo partly drawn)

>  <assay value>
1.03

$$$$
>  <compound>
O=c1[nH]cc(F)c(=O)[nH]1

>  <assay value>
0.71

$$$$
>  <compound>
CC1C(=O)OC2C1CCC1(C)C=CC(=O)C3(C)OC213 (stereo not drawn)

>  <assay value>
1.01

$$$$
>  <compound>
CC(C)=CCCC1(C)C=Cc2c(O)c3c(c(CC=C(C)C)c2O1)OC12C(CC4CC1C(C)(C)OC2(C/C=C(/C)C(=O)O)C4O)C3=O (stereo not drawn)

>  <assay value>
0.994

$$$$
>  <compound>
Nc1c2c(nc3ccccc13)CCCC2O (stereo not drawn)

>  <assay value>
1.02

$$$$
>  <compound>
COC(=O)Nc1nc2ccc(C(=O)c3ccccc3)cc2[nH]1

>  <assay value>
0.99

$$$$
>  <compound>
COC(=O)Nc1nc2ccc(Sc3ccccc3)cc2[nH]1

>  <assay value>
1

$$$$
>  <compound>
Cc1ccc(S(=O)(=O)NC(=O)NN2CC3CCCC3C2)cc1 (stereo not drawn)

>  <assay value>
0.995

$$$$
>  <compound>
CC(C)(Oc1ccc(CCNC(=O)c2ccc(Cl)cc2)cc1)C(=O)O

>  <assay value>
1.01

$$$$
>  <compound>
OC(CCN1CCCC1)(c1ccccc1)C1CCCCC1 (stereo not drawn)

>  <assay value>
0.996

$$$$
